Assay read-out IC50; system under study: UniProt:Q7ZJM1.
Sequence (Q7ZJM1 whole entry): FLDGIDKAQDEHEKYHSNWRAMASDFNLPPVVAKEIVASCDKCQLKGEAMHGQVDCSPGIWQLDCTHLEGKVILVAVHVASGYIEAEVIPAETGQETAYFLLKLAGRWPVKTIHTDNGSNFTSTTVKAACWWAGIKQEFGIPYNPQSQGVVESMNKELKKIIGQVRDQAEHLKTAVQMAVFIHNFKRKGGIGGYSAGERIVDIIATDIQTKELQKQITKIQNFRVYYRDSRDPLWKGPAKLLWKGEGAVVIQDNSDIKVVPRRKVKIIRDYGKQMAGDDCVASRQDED

compound: C=C(C=O)[C@@H]1C[C@@]2(C)C(=CC1=O)[C@H](OC(=O)/C(C)=C/C(C)CCCC)CC[C@@H]2C(=O)ON[C@H](C(=O)OC)c1ccccc1 (stereo partly specified)
IC50, µM: 5
--
compound: C=C/C(C)=C1\C[C@@]2(C)C(=CC1=O)[C@H](OC(=O)/C(C)=C/C(C)CCCC)CC[C@@H]2C(=O)O (stereo partly specified)
IC50, µM: 75
--
compound: C=C(C=O)[C@@H]1C[C@@]2(C)C(=CC1=O)[C@H](OC(=O)/C(C)=C/C(C)CCCC)CC[C@@H]2C(=O)O (stereo partly specified)
IC50, µM: 3
--
compound: CCCCC(C)/C=C(\C)C(=O)O[C@@H]1CC[C@H](C(=O)O)[C@@]2(C)C[C@@H]([C@H](C)C=O)C(=O)C=C12 (stereo partly specified)
IC50, µM: 11
--
compound: C=CC(=C)[C@@H]1C[C@@]2(C)C(=CC1=O)[C@H](OC(=O)/C(C)=C/C(C)CCCC)CC[C@@H]2C(=O)O (stereo partly specified)
IC50, µM: 30
--
compound: C=C(C=O)[C@@H]1C[C@@]2(C)C(=CC1=O)[C@H](OC(=O)/C(C)=C/C(C)CCCC)CC[C@@H]2C(=O)N1CCN(C(=O)[C@H]2CC[C@@H](OC(=O)/C(C)=C/C(C)CCCC)C3=CC(=O)[C@H](C(=C)C=O)C[C@@]32C)CC1 (stereo partly specified)
IC50, µM: 24
